Target: Human Cav3.1 calcium channel (Homo sapiens)
Construct: expressed in transfected cells; host or cells: HEK-293 natClytin/TASK1+Cav3.1 cell line
Sequence (O43497 whole entry): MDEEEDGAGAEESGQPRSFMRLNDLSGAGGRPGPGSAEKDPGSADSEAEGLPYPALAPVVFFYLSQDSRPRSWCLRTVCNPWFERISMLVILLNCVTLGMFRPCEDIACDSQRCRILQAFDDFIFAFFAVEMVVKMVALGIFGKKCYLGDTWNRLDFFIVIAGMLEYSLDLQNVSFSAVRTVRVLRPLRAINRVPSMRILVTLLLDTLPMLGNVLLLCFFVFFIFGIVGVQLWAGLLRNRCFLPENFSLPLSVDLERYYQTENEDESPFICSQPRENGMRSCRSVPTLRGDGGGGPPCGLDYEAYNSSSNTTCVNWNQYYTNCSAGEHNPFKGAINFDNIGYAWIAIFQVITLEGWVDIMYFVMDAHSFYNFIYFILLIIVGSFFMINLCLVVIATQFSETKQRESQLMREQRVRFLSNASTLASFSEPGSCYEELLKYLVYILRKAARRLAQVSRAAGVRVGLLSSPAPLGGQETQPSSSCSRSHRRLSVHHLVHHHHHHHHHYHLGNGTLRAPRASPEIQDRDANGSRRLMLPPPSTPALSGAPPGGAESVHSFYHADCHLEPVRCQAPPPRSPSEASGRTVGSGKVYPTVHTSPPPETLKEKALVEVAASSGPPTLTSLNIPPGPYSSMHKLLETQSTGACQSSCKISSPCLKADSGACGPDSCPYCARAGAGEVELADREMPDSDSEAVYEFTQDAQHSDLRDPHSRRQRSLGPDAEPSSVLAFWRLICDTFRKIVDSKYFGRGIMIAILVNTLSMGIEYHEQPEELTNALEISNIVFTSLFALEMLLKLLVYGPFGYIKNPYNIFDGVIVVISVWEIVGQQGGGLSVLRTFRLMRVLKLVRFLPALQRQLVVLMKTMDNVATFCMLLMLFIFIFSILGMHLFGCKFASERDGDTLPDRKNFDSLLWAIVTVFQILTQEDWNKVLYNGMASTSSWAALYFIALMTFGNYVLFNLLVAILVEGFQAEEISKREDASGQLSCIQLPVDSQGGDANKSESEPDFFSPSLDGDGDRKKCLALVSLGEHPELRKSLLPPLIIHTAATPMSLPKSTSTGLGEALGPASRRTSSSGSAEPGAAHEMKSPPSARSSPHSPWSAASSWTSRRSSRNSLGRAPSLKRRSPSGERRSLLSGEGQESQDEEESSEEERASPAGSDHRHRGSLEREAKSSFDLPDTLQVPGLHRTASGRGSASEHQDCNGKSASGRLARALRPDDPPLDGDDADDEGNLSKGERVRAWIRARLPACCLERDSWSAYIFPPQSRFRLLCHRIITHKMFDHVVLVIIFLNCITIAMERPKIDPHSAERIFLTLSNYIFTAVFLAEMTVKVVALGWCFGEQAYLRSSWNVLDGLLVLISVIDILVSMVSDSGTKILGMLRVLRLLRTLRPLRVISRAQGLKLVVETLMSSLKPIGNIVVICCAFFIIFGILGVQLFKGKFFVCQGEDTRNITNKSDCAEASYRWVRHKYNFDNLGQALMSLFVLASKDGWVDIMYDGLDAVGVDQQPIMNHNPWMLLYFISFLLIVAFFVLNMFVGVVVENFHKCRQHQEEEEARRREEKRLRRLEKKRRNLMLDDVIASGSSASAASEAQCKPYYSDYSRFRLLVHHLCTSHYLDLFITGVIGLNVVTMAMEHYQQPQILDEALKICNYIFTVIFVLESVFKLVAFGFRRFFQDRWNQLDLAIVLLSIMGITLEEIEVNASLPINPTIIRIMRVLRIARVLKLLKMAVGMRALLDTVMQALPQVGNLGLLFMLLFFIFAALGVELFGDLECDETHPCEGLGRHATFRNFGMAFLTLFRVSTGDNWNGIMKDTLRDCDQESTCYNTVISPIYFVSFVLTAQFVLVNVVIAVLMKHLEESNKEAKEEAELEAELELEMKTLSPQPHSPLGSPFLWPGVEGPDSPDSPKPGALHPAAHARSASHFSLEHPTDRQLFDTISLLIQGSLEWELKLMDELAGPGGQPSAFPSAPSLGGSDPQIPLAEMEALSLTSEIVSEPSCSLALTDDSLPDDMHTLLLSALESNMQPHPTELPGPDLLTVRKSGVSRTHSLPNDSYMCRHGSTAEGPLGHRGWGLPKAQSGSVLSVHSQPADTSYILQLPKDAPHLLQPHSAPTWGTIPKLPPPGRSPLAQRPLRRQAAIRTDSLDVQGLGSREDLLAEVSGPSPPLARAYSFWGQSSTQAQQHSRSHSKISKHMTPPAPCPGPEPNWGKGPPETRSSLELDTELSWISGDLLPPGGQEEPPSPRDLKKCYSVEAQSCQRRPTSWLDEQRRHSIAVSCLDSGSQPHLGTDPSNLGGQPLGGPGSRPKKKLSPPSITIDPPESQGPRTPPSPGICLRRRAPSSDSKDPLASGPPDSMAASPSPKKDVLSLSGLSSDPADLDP
Experiment: Human Cav3.1 calcium channel patch clamp assay (SyncroPatch 384PE; single point and IC50, voltage dependent block)
Assay type: cell-based
Conditions: Testing Conc 1.25; HEK-293 natClytin/TASK1+Cav3.1 cell line, patch clamp
% Inhibition (Single Point Data) for assorted compounds
Give the value, in units of %, as a plain number.

INSERT INTO assay_data (compound, assay_target, result_number) VALUES
  ('O=C(CN1CC2CC(C1)N2CC(=O)NC1(C(F)(F)F)CC1)Nc1ccc(F)c(OC(F)(F)F)c1', 'Human Cav3.1 calcium channel (Homo sapiens)', 93.979),
  ('CC(C)(C)NC(=O)CN1C2CC1CN(CC(=O)Nc1cc(Cl)cc(Cl)c1)C2', 'Human Cav3.1 calcium channel (Homo sapiens)', 89.866),
  ('O=C(CN1C2CCC1CN(Cc1nc3c(Cl)cc(F)cc3[nH]1)C2)N1CCOCC1', 'Human Cav3.1 calcium channel (Homo sapiens)', 84.836),
  ('O=C1CCCCN1CCN1C2CC1CN(Cc1nc3c(Cl)cc(F)cc3[nH]1)C2', 'Human Cav3.1 calcium channel (Homo sapiens)', 81.802),
  ('CC(C)(C)NC(=O)CN1C2CC(CNC(=O)c3cc(F)cc(Cl)c3)CC1C2 (stereo not shown)', 'Human Cav3.1 calcium channel (Homo sapiens)', 91.88);

Now consider the entry below.
# input Return reported % Inhibition (Single Point Data). Input compound: CC(C)(C)NC(=O)CN1C[C@@H]2C[C@H]1CN2CC(=O)Nc1cc(F)cc(OC(F)F)c1
# output 97.77

====

Molecular target: Human Cav3.1 calcium channel (Homo sapiens)
Construct: expressed in transfected cells; host or cells: HEK-293 natClytin/TASK1+Cav3.1 cell line
Experiment: Human Cav3.1 calcium channel patch clamp assay (SyncroPatch 384PE; single point and IC50, voltage dependent block)
Assay type: cell-based
Conditions: voltage dependent block (VDB); HEK-293 natClytin/TASK1+Cav3.1 cell line; read-out: Cav3.1 IC50
Observable: pIC50
Note on units: pIC50 is unitless, being -log10 of a concentration expressed in mol/L.

Below are worked cases with known answers.
INSERT INTO assay_data (compound, assay_target, result_number) VALUES
  ('Fc1cc(Cl)c2nc(CN3CCN(CC(F)(F)C4CCCCC4)CC3)[nH]c2c1', 'Human Cav3.1 calcium channel (Homo sapiens)', 6.38),
  ('COc1cc(NC(=O)CN2CC3CC(C2)N3CC(=O)NC2(C(F)(F)F)CC2)ccc1F', 'Human Cav3.1 calcium channel (Homo sapiens)', 6.63),
  ('CC(C)(C)NC(=O)CN1CC2CC1CN2CC(=O)Nc1ccc(F)c(Cl)c1 (centres unmarked)', 'Human Cav3.1 calcium channel (Homo sapiens)', 6.64),
  ('CC(C)(C)NC(=O)CN1C[C@@H]2C[C@H]1CN2CC(=O)Nc1ccc(Cl)c(OC(F)F)c1', 'Human Cav3.1 calcium channel (Homo sapiens)', 7.09),
  ('COc1cc(Cl)cc(NC(=O)CN2C[C@@H]3C[C@H]2CN3CC(=O)NC2(C(F)(F)F)CC2)c1', 'Human Cav3.1 calcium channel (Homo sapiens)', 6.60);

# input Return reported pIC50. Input compound: COc1cc(NC(=O)CN2C[C@@H]3C[C@H]2CN3CC(=O)NC(C)(C)C)ccc1F
# output 6.62

# input Return reported pIC50. Input compound: CC(C)(C)NC(=O)CN1C[C@H]2C[C@@H]1CN2CC(=O)Nc1ccc(F)c(OC(F)F)c1
# output 5.97

# input Return reported pIC50. Input compound: O[C@H]1CC[C@@H](OCCN2C3CC2CN(Cc2nc4c(Cl)cc(F)cc4[nH]2)C3)CC1
# output 5.23
